Tested on: Mitochondrial membrane
Assay: Induction of mitochondrial membrane potential loss in human A549 cells assessed as green fluorescence at IC50 incubated for 48 hrs MitoTracker Green FM staining based flow cytometry analysis (reference value: 8.93 %)
Format: cell membranes

| SAMPLE SMILES | Activity (%) |
| --- | --- |
| CC[C@@H](C(=O)[C@@H](C)[C@@H](O)[C@H](C)[C@@H]1O[C@@H]([C@@H](CC)C(=O)O)CC[C@@H]1C)[C@H]1O[C@]2(C=C[C@@H](O)[C@]3(CC[C@@](C)([C@H]4CC[C@](O)(CC)[C@H](C)O4)O3)O2)[C@H](C)C[C@@H]1C | 18.8 |

* * *

Tested on: Staphylococcus aureus
Assay: Antimicrobial activity against Staphylococcus aureus ATCC 29213 incubated for 18 hrs by twofold microdilution method
Assay type: functional
MIC overview
MEASURE NAME: MIC (µg/mL)

| SAMPLE SMILES | TEST TARGET | RECORDED VALUE |
| --- | --- | --- |
| CC[C@@H](C(=O)[C@@H](C)[C@@H](O)[C@H](C)[C@@H]1O[C@@H]([C@@H](CC)C(=O)OCCCC[P+](c2ccccc2)(c2ccccc2)c2ccc(N(C)C)cc2)CC[C@@H]1C)[C@H]1O[C@]2(C=C[C@@H](O)[C@]3(CC[C@@](C)([C@H]4CC[C@](O)(CC)[C@H](C)O4)O3)O2)[C@H](C)C[C@@H]1C.[Br-] | Staphylococcus aureus | 2 |
| CC[C@@H](C(=O)[C@@H](C)[C@@H](O)[C@H](C)[C@@H]1O[C@@H]([C@@H](CC)C(=O)OCCCC[P+](c2ccc(OC)cc2)(c2ccc(OC)cc2)c2ccc(OC)cc2)CC[C@@H]1C)[C@H]1O[C@]2(C=C[C@@H](O)[C@]3(CC[C@@](C)([C@H]4CC[C@](O)(CC)[C@H](C)O4)O3)O2)[C@H](C)C[C@@H]1C.[Br-] | Staphylococcus aureus | 64 |

* * *

Assay: Selectivity index, ratio of IC50 for cytotoxicity against chinese hamster V79 cells to IC50 for cytotoxicity against human PC-3 cells
Format: toxicity, cell-based
Conditions: V79 cells versus PC-3 cells, read-out: Ratio IC50
selectivity ratio overview

| MOLECULE | selectivity ratio |
| --- | --- |
| CC[C@@H](C(=O)[C@@H](C)[C@@H](O)[C@H](C)[C@@H]1O[C@@H]([C@@H](CC)C(=O)OCc2ccccc2)CC[C@@H]1C)[C@H]1O[C@]2(C=C[C@@H](O)[C@]3(CC[C@@](C)([C@H]4CC[C@](O)(CC)[C@H](C)O4)O3)O2)[C@H](C)C[C@@H]1C | 0.7 |
| CC[C@@H](C(=O)[C@@H](C)[C@@H](O)[C@H](C)[C@@H]1O[C@@H]([C@@H](CC)C(=O)O)CC[C@@H]1C)[C@H]1O[C@]2(C=C[C@@H](O)[C@]3(CC[C@@](C)([C@H]4CC[C@](O)(CC)[C@H](C)O4)O3)O2)[C@H](C)C[C@@H]1C [SALINOMYCIN] | 0.5 |

* * *

Assay: Selectivity index, ratio of IC50 for cytotoxicity against human HaCaT cells to IC50 for cytotoxicity against human PC-3 cells
Format: toxicity, cell-based
Conditions: HaCaT cells versus PC-3 cells, read-out: Ratio IC50

| SAMPLE SMILES | selectivity ratio |
| --- | --- |
| CC[C@@H](C(=O)[C@@H](C)[C@@H](O)[C@H](C)[C@@H]1O[C@@H]([C@@H](CC)C(=O)O)CC[C@@H]1C)[C@H]1O[C@]2(C=C[C@@H](O)[C@]3(CC[C@@](C)([C@H]4CC[C@](O)(CC)[C@H](C)O4)O3)O2)[C@H](C)C[C@@H]1C | 0.3 |
| CC[C@@H](C(=O)[C@@H](C)[C@@H](O)[C@H](C)[C@@H]1O[C@@H]([C@@H](CC)C(=O)OCCCCCC[P+](c2ccc(C)cc2)(c2ccc(C)cc2)c2ccc(C)cc2)CC[C@@H]1C)[C@H]1O[C@]2(C=C[C@@H](O)[C@]3(CC[C@@](C)([C@H]4CC[C@](O)(CC)[C@H](C)O4)O3)O2)[C@H](C)C[C@@H]1C.[Br-] | 0.7 |
| CC[C@@H](C(=O)[C@@H](C)[C@@H](O)[C@H](C)[C@@H]1O[C@@H]([C@@H](CC)C(=O)OCCCCCC[P+](c2ccc(OC)cc2)(c2ccc(OC)cc2)c2ccc(OC)cc2)CC[C@@H]1C)[C@H]1O[C@]2(C=C[C@@H](O)[C@]3(CC[C@@](C)([C@H]4CC[C@](O)(CC)[C@H](C)O4)O3)O2)[C@H](C)C[C@@H]1C.[Br-] | 0.5 |
| CC[C@@H](C(=O)[C@@H](C)[C@@H](O)[C@H](C)[C@@H]1O[C@@H]([C@@H](CC)C(=O)OCCCC[P+](c2ccc(C)cc2)(c2ccc(C)cc2)c2ccc(C)cc2)CC[C@@H]1C)[C@H]1O[C@]2(C=C[C@@H](O)[C@]3(CC[C@@](C)([C@H]4CC[C@](O)(CC)[C@H](C)O4)O3)O2)[C@H](C)C[C@@H]1C.[Br-] | 0.5 |
| CC[C@@H](C(=O)[C@@H](C)[C@@H](O)[C@H](C)[C@@H]1O[C@@H]([C@@H](CC)C(=O)OCCCC[P+](c2ccccc2OC)(c2ccccc2OC)c2ccccc2OC)CC[C@@H]1C)[C@H]1O[C@]2(C=C[C@@H](O)[C@]3(CC[C@@](C)([C@H]4CC[C@](O)(CC)[C@H](C)O4)O3)O2)[C@H](C)C[C@@H]1C.[Br-] | 1.1 |

* * *

System: Mitochondrial membrane
Test: Induction of mitochondrial membrane potential loss in human MDA-MB-231 cells assessed as red fluorescence at IC50 incubated for 48 hrs MitoTrackerRed CMXRos staining based flow cytometry analysis (reference value: 91.1 %)
Type: cell membranes

| SAMPLE SMILES | UNIT SPEC | Activity |
| --- | --- | --- |
| CC[C@@H](C(=O)[C@@H](C)[C@@H](O)[C@H](C)[C@@H]1O[C@@H]([C@@H](CC)C(=O)O)CC[C@@H]1C)[C@H]1O[C@]2(C=C[C@@H](O)[C@]3(CC[C@@](C)([C@H]4CC[C@](O)(CC)[C@H](C)O4)O3)O2)[C@H](C)C[C@@H]1C | % | 76.7 |
| CC[C@@H](C(=O)[C@@H](C)[C@@H](O)[C@H](C)[C@@H]1O[C@@H]([C@@H](CC)C(=O)OCCCC[P+](c2ccccc2)(c2ccccc2)c2ccccc2)CC[C@@H]1C)[C@H]1O[C@]2(C=C[C@@H](O)[C@]3(CC[C@@](C)([C@H]4CC[C@](O)(CC)[C@H](C)O4)O3)O2)[C@H](C)C[C@@H]1C.[Br-] | % | 39.1 |
| N#CC(C#N)=NNc1cccc(Cl)c1 | % | 12.3 |
| CC[C@@H](C(=O)[C@@H](C)[C@@H](O)[C@H](C)[C@@H]1O[C@@H]([C@@H](CC)C(=O)OCc2ccccc2)CC[C@@H]1C)[C@H]1O[C@]2(C=C[C@@H](O)[C@]3(CC[C@@](C)([C@H]4CC[C@](O)(CC)[C@H](C)O4)O3)O2)[C@H](C)C[C@@H]1C | % | 79.7 |
| CCCC[P+](CCCC)(CCCC)CCCCOC(=O)[C@H](CC)[C@H]1CC[C@H](C)[C@H]([C@@H](C)[C@H](O)[C@H](C)C(=O)[C@H](CC)[C@H]2O[C@]3(C=C[C@@H](O)[C@]4(CC[C@@](C)([C@H]5CC[C@](O)(CC)[C@H](C)O5)O4)O3)[C@H](C)C[C@@H]2C)O1.[Br-] | % | 29.4 |

* * *

selectivity ratio overview
Assay: Selectivity index, ratio of IC50 for cytotoxicity against human HaCaT cells to IC50 for cytotoxicity against human MDA-MB-231 cells
Type: toxicity, cell-based
Settings: HaCaT cells versus MDA-MB-231 cells, read-out: Ratio IC50

| SAMPLE SMILES | selectivity ratio |
| --- | --- |
| CC[C@@H](C(=O)[C@@H](C)[C@@H](O)[C@H](C)[C@@H]1O[C@@H]([C@@H](CC)C(=O)O)CC[C@@H]1C)[C@H]1O[C@]2(C=C[C@@H](O)[C@]3(CC[C@@](C)([C@H]4CC[C@](O)(CC)[C@H](C)O4)O3)O2)[C@H](C)C[C@@H]1C | 0.66 |
| CCCC[P+](CCCC)(CCCC)CCCCOC(=O)[C@H](CC)[C@H]1CC[C@H](C)[C@H]([C@@H](C)[C@H](O)[C@H](C)C(=O)[C@H](CC)[C@H]2O[C@]3(C=C[C@@H](O)[C@]4(CC[C@@](C)([C@H]5CC[C@](O)(CC)[C@H](C)O5)O4)O3)[C@H](C)C[C@@H]2C)O1.[Br-] | 0.8 |
| CC[C@@H](C(=O)[C@@H](C)[C@@H](O)[C@H](C)[C@@H]1O[C@@H]([C@@H](CC)C(=O)OCCCCCC[P+](c2ccccc2)(c2ccccc2)c2ccc(N(C)C)cc2)CC[C@@H]1C)[C@H]1O[C@]2(C=C[C@@H](O)[C@]3(CC[C@@](C)([C@H]4CC[C@](O)(CC)[C@H](C)O4)O3)O2)[C@H](C)C[C@@H]1C.[Br-] | 0.8 |
